Tested on: rodent lifetime carcinogenesis bioassay, tumor incidence TD50
test protocol: carcinogenic potency in animals, long-term in vivo studies, CPDB compilation (AID 1745844)
test context: rat; strain Fischer 344; females; inhaled; site: all sites; lesion: hemangiosarcoma; dosed 26 weeks; study length 104 weeks
property: TD50

[Q] I'm curious: which TD50 was measured for C=CCl tested on rodent lifetime carcinogenesis bioassay, tumor incidence TD50?
[A] 91.2 mg/kg/day

----------
Test system: rodent lifetime carcinogenesis bioassay, tumor incidence TD50
test protocol: carcinogenic potency in animals, long-term in vivo studies, CPDB compilation (AID 1745844)
test context: rat; strain Fischer 344; females; by gavage; site: nasal cavity; lesion: carcinoma, NOS + squamous-cell carcinoma; dosed 100 weeks; study length 104 weeks
property: TD50

[Q] # query: TD50 | item CC(C)=CCl | system: rodent lifetime carcinogenesis bioassay, tumor incidence TD50
[A] 46.8 mg/kg/day

Values were extracted from PubChem BioAssay AID1745844.
